Source of measurements: the supplement of paper PMC8728848

molecular target: Gal(b1-3)GalNAc(a1-3)[Fuc(a1-2)]Gal(b1-4)Glc; assay: glycan array binding signal (z-score within array); higher = stronger binding; conditions: glycan notation: IUPAC condensed, linker removed
This is one part of a sample in which the strongest signals are shown more often than they occur.
endpoint_label: glycan array binding signal (z-score)
Give the value as a plain number.

Record Gal 4 (Mus musculus), P56470 (protein) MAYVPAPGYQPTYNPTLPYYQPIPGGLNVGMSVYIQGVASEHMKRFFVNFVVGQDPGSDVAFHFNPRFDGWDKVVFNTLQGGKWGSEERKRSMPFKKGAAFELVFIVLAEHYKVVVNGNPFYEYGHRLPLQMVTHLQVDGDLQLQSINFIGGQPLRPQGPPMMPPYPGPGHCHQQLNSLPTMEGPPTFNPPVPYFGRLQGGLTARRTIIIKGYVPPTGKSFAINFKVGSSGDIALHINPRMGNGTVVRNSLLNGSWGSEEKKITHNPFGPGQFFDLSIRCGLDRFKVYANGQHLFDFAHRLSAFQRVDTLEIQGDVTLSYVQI , field glycan array binding signal (z-score): 4.95
